Ref: PubChem BioAssay

Please go through the items and note down their response.
Assay: cytosolic pH regulators acting via V-ATPase – S. cerevisiae, pHLuorin, HTS validation (AID 504600);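 note: plate controls were DMSO for no effect and reference compound for full effect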
Settings: V-ATPase proton transport, at 10 µM, stronger effect = higher value
Give bare numbers, in %.

Past entries and their recorded results:
compound | response [%]
C[C@]12CC[C@@H]3c4ccc(O)cc4CC[C@H]3[C@@H]1CC[C@@H]2O | 2.25
O=C(COc1ccc2c(-c3ccccc3)cc(=O)oc2c1)NCc1cccs1 | -7

Here are 2 compounds. What values of response were reported for them?
1. COc1ccc(CN(CCC(c2ccccc2)c2ccc(OC(C)C)cc2)C(=O)CCl)cc1OC (stereo not given)
2. CC12CCC(C(=O)N(CCC#N)CCC#N)(CC1=O)C2(C)C (stereo not given)

1: 0.92; 2: 0.52

Here are 2 compounds. What values of response were reported for them?
1. OCCC1CN(Cc2nc(-c3ccccc3)cs2)CCN1Cc1ccc(F)cc1 (stereo not given)
2. CC(C)(C)NCC(O)COc1cccc2c1C[C@H](O)[C@H](O)C2 (stereo not given in full)

1. -2.6
2. -3.23

Here are 4 compounds. What values of response were reported for them?
1. COc1ccc(C2OC[C@H]3O[C@H](O)[C@H](NC(C)=O)[C@@H](O)[C@@H]3O2)cc1 (stereo not given in full)
2. CC(C)CC(=O)Nc1ccc2oc(-c3ccncc3)nc2c1
3. CC(=O)C1=C(O)C(=O)OC1c1ccc(C)cc1 (stereo not given)
4. COc1cccc2cc(-c3ccccc3)c(=O)oc12

4.88
-0.11
-0.38
34.3
